Where these numbers come from: ChEMBL document CHEMBL2176918

- assay explanation: Apparent permeability from apical to basolateral side in human Caco2 cells at pH 7.4
- Assay type: ADME, cell-based
- settings: Caco-2, pH 7.4
Listed here are compounds together with their documented Papp A→B.

Solved entries:
smiles repr: Cc1nc(C)c(-c2ccc([C@H]3CC[C@H](CC(=O)NS(C)(=O)=O)CC3)cc2)nc1C(N)=O
Papp A→B: 2 ×10⁻⁶ cm/s
//
smiles repr: Cc1ncc(C(N)=O)nc1-c1ccc([C@H]2CC[C@H](CC(=O)O)CC2)cc1
Papp A→B: 35 ×10⁻⁶ cm/s
//
smiles repr: Cc1nc(C)c(-c2ccc([C@H]3CC[C@H](CC(=O)NC(C)(C)C(=O)O)CC3)cc2)nc1C(N)=O
Papp A→B: 0.71 ×10⁻⁶ cm/s
//
smiles repr: NC(=O)c1cncc(-c2ccc([C@H]3CC[C@H](CCO)CC3)cc2)n1
Papp A→B: 38 ×10⁻⁶ cm/s
//
smiles repr: NC(=O)c1cncc(-c2ccc([C@H]3CC[C@H](CC(=O)O)CC3)cc2)n1
Papp A→B: 29 ×10⁻⁶ cm/s
//
smiles repr: NC(=O)C[C@H]1CC[C@H](c2ccc(-c3cncc(C(N)=O)n3)cc2)CC1
Papp A→B: 13 ×10⁻⁶ cm/s

// switching to the query compound
Value of measured Papp A→B for the entry Cc1nc(C)c(-c2ccc([C@H]3CC[C@H](CCO)CC3)cc2)nc1C(N)=O : 58 ×10⁻⁶ cm/s
